study-system: Cyclin-dependent kinase 6 (Homo sapiens)
Sequence (Q00534 whole entry): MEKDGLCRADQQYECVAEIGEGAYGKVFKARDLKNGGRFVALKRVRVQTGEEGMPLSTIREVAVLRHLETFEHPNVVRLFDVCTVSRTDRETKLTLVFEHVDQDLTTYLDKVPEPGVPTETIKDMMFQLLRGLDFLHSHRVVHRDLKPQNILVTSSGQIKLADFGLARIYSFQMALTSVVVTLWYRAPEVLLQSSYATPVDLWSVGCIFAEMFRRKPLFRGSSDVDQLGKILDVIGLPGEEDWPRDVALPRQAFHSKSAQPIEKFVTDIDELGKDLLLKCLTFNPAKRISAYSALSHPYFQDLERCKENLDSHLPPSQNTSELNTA
pKd: −log10 of the molar value.
test-readout: pKd

Quote Cyclin-dependent kinase 6 (Homo sapiens) pKd for entry "Cn1cc(-n2cnc3c(NCc4nc5cc(Cl)c(Cl)cc5[nH]4)nc(N4CCOCC4)nc32)cn1" .
< 5.00

====

study-system: Cyclin-dependent kinase 2 (Homo sapiens)
test-readout: IC50

Provide one value: measured IC50 of "N[C@H]1CCN(c2c3c(nc4ccc(-c5ccncc5)cc24)CCCC3)C1"
> 0.5 µM

====

study-system: Cyclin-dependent kinase 7 (Homo sapiens, UniProt P50613)
Sequence (P50613 whole entry): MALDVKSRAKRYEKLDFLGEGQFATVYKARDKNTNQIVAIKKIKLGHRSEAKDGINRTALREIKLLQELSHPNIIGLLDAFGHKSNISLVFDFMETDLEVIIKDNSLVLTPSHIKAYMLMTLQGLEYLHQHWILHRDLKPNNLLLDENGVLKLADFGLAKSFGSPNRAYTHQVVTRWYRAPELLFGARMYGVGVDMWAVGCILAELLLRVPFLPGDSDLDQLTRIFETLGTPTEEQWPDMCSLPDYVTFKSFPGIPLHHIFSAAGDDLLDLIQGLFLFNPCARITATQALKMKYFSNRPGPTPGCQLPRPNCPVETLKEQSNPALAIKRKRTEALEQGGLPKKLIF
assay-protocol: biochemical
test-readout: IC50 (nM)
Return type: number; implicit unit nM.

Jot down IC50 (Cyclin-dependent kinase 7 (Homo sapiens, UniProt P50613)) of "Clc1cnc(N[C@H]2CCCNC2)nc1-c1c[nH]c2ccccc12" .
0.33
